Test: Selectivity index, ratio of CC50 for Macaca mulatta hepatocytes to IC50 for antiplasmodial activity against hypnozoite Plasmodium cynomolgi B strain infected in Macaca mulatta hepatocytes incubated with sporozoite containing salivary gland homogenate obtained from dissected Anopheles dirus mosquitoes (infected with Plasmodium cynomolgi B strain) treatment started on day 4 post infection and continued daily for 4 days into fresh changed media until day 8 assessed as Liver stage (LS) activity by measuring radical cure mode by immunofluorescent staining analysis
Format: toxicity, cell-based
Details: rhesus monkey, read-out: Selectivity Index

# Compound, selectivity ratio at 96 h
rows = [
    ("O=c1c2c([nH]c3cccc(Oc4ccc(OC(F)(F)F)cc4)c13)CCCC2", 1.57),
    ("O=c1c2ccc(OCc3ccc(C(F)(F)F)cc3)cc2[nH]c2cc(Cl)cc(F)c12", 2.34),
    ("CC(C)(C)OC(=O)N1CCC(Oc2ccc3c(=O)c4c(F)cc(Cl)cc4[nH]c3c2)CC1", 1.22),
    ("O=c1c2ccc(OCc3ccc(OC(F)(F)F)cc3)cc2[nH]c2cc(Cl)cc(F)c12", 1.77),
    ("O=c1c2c([nH]c3cc(Oc4ccc(OC(F)(F)F)cc4)ccc13)CCCC2", 1.11),
    ("CC(C)(C)OC(=O)N1CCC(Oc2ccc3c(=O)c4c(Cl)cc(F)cc4[nH]c3c2)CC1", 1.06),
    ("O=c1c2cc(F)c(Oc3ccc(OC(F)(F)F)cc3)cc2[nH]c2cc(Cl)cc(F)c12", 1.04),
    ("CO[C@@H]1[C@@H](OC)[C@H](C)[C@@](O)(CC(=O)O)O[C@H]1[C@H](C)[C@H]1O[C@@]2(CC[C@@](C)([C@H]3CC[C@@](C)([C@@H]4O[C@@H]([C@H]5O[C@](C)(O)[C@H](C)C[C@@H]5C)C[C@@H]4O[C@@H]4C[C@H](OC)[C@@H](OC)[C@H](C)O4)O3)O2)C[C@H](O)[C@H]1C [MADURAMICIN ACID]", 78.7),
]

All figures here come from ChEMBL document CHEMBL6134844.
